Target: Human immunodeficiency virus type 1 protease (Human immunodeficiency virus 1) (UniProt Q72874)
Assay: Inhibition of HIV1 protease at 5 uM
Listed compounds paired with reported inhibition
// units = %; emit number, no label

Write down inhibition measured for item `O=C(N[C@@H](Cc1ccccc1)[C@H](Cc1ccccc1)n1cc(CN2CCN(c3cccc(Cl)c3)CC2)nn1)OC1CCCC1`
93

Answer with the recorded inhibition for the compound listed here: `O=C(N[C@@H](Cc1ccccc1)[C@H](Cc1ccccc1)n1cc(CN2CCN(c3ccccc3)CC2)nn1)OC1CCCC1`
82

Supply measured inhibition of O=C(N[C@@H](Cc1ccccc1)[C@H](Cc1ccccc1)n1cc(CN2CCCC(c3ccccc3)C2)nn1)OC1CCCC1 (some centres not stated) in your reply.
28

Read off the recorded inhibition for `O=C(N[C@@H](Cc1ccccc1)[C@H](Cc1ccccc1)n1cc(CN2CCN(c3ncccn3)CC2)nn1)OC1CCCC1`
25

In one line, give reported inhibition of the entry `Cc1ccc(Cl)cc1N1CCN(Cc2cn([C@@H](Cc3ccccc3)[C@H](Cc3ccccc3)NC(=O)NC3CCCCC3)nn2)CC1` .
15

Further cases:
Consider the compound `O=C(N[C@@H](Cc1ccccc1)[C@H](Cc1ccccc1)n1cc(CN2CC=C(c3ccc(Cl)cc3)CC2)nn1)OC1CCCC1` . State its measured inhibition.
58

Tell us which inhibition value is on record for `Cc1ccc(Cl)cc1N1CCN(Cc2cn([C@@H](Cc3ccccc3)[C@H](Cc3ccccc3)NC(=O)Nc3ccc(F)cc3)nn2)CC1`
30
